The values you see were collected from ChEMBL document CHEMBL6177930.

System: T47D
Assay: Antiproliferative activity against human T47D cells assessed as inhibition of cell growth at 10 uM measured after 48 to 72 hrs by MTT assay relative to control
Assay type: functional
Conditions: time 48-72 hrs
Give True when the value for inhibition at 10 µM is at least 2%. Give False when it is less.

Worked set:
> print(dat)
                                   molecule  experimental.system  assigned.class
1  Brc1ccc(Cc2nc(NCCN3CCNCC3)c3c4c(sc3n2)CCCC4)cc1                 T47D            True
2  Fc1ccccc1CNc1nc(Cc2ccc(Br)cc2)nc2sc3c(c12)CCCC3                 T47D            True
3  Brc1ccc(Cc2nc(N3CCN(c4ccncc4)CC3)c3c4c(sc3n2)CCCC4)cc1                 T47D            True
4  Brc1ccc(Cc2nc(NC3CC3)c3c4c(sc3n2)CCCC4)cc1                 T47D           False
5  Clc1ccccc1CNc1nc(Cc2ccc(Br)cc2)nc2sc3c(c12)CCCC3                 T47D            True
6  Brc1ccc(Cc2nc(NCc3ccccc3)c3c4c(sc3n2)CCCC4)cc1                 T47D            True
7  CCN(CC)c1nc(Cc2ccc(Br)cc2)nc2sc3c(c12)CCCC3                 T47D            True
8  COc1ccc(CNc2nc(Cc3ccc(Br)cc3)nc3sc4c(c23)CCCC4)cc1                 T47D           False

**Query** Test whether the molecule "CC(C)(C)OC(=O)N1CCN(c2nc(Cc3ccc(Br)cc3)nc3sc4c(c23)CCCC4)CC1" records inhibition at 10 µM of 2% or higher.
**Result** True

**Query** Test whether the molecule "NCCCNc1nc(Cc2ccc(Br)cc2)nc2sc3c(c12)CCCC3" records inhibition at 10 µM of 2% or higher.
**Result** True

**Query** Test whether the molecule "Nc1ccccc1CNc1nc(Cc2ccc(Br)cc2)nc2sc3c(c12)CCCC3" records inhibition at 10 µM of 2% or higher.
**Result** False

**Query** Test whether the molecule "Fc1cc(CNc2nc(Cc3ccc(Br)cc3)nc3sc4c(c23)CCCC4)cc(F)c1F" records inhibition at 10 µM of 2% or higher.
**Result** True

**Query** Test whether the molecule "Brc1ccc(Cc2nc(NC3CCCCC3)c3c4c(sc3n2)CCCC4)cc1" records inhibition at 10 µM of 2% or higher.
**Result** False
